- TEST TARGET: rat nNOS (Rattus norvegicus (Rat), UniProt P29476)
- EXPERIMENT: Oxyhemoglobin NO capture assay with purified NOS
- Assay type: biochemical
- EXPERIMENTAL CONDITIONS: Table 9; read-out: Ki Rat nNOS
MEASURED QUANTITY: pKi
Bear in mind: pKi is minus log10 of a mol/L concentration; give just that figure.

Field: example entries. Status: answers known.
INSERT INTO results (molecule, test_target, numeric_result) VALUES
  ('Cc1cc(N)nc(CCc2cccc(N(C)CCN)c2)c1 [Compound 10c]', 'rat nNOS (Rattus norvegicus (Rat), UniProt P29476)', 7.21),
  ('Cc1cc(N)nc(CCc2cc(C#N)cc(N(C)CCNC(C)C)c2)c1 [Compound 21b]', 'rat nNOS (Rattus norvegicus (Rat), UniProt P29476)', 6.90),
  ('Cc1cc(N)nc(CCc2cc(C#N)cc(N(C)CCc3cccc(F)c3)c2)c1 [Compound 21d]', 'rat nNOS (Rattus norvegicus (Rat), UniProt P29476)', 5.75),
  ('Cc1cc(N)nc(CCc2cc(F)cc(NCc3cccnc3)c2)c1 [Compound 23g]', 'rat nNOS (Rattus norvegicus (Rat), UniProt P29476)', 5.99);

Task: Observed pKi on rat nNOS (Rattus norvegicus (Rat), UniProt P29476) for CCNCCN(C)c1cc(C#N)cc(CCc2cc(C)cc(N)n2)c1 [Compound 21a] , please.
Result: 7.19

Task: Let us now turn to Cc1cc(N)nc(CCc2cc(C#N)cc(N(C)CCNC3CC3)c2)c1 [Compound 21c]
Result: 6.94

* * *

- TEST TARGET: bsNOS (Bacillus subtilis (strain 168))
- Sequence (O34453 whole entry): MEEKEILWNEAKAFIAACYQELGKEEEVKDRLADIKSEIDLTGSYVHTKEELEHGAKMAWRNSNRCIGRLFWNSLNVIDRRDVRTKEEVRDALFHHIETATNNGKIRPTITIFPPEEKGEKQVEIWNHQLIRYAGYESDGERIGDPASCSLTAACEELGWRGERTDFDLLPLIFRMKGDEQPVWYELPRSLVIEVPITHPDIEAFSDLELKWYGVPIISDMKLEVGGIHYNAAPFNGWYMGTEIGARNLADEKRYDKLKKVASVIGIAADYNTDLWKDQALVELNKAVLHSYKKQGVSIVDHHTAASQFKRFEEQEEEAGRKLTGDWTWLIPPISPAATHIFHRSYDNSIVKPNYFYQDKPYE
- EXPERIMENT: Imidazole displacement, spectral binding constant KS
- EXPERIMENTAL CONDITIONS: KS bsNOS, imidazole displacement; Tables 1 and 4
MEASURED QUANTITY: pKd
Worth noting: pKd values are minus log10 of concentrations stated in mol/L.

Task: What value of pKd has been recorded for this entry: N=C(N)NCCC[C@H](N)C(=O)O [L-Arg, L-arginine]
Result: 6.12

Task: // repeat for Cc1cc(N)nc(CCc2cccc(C(O)Cc3cc(C)cc(N)n3)c2)c1 (centres unmarked) [Compound 10] and report
Result: 5.72

* * *

Examples of compounds with documented e/n selectivity follow.
- TEST TARGET: bovine eNOS (Bos taurus (Bovine))
- EXPERIMENT: Oxyhemoglobin NO capture assay with purified NOS
- Type: biochemical
- EXPERIMENTAL CONDITIONS: ratio Ki eNOS / Ki rat nNOS, Table 9
Just the number, please, no unit attached.

INSERT INTO results (compound, measured_quantity, numeric_result) VALUES
  ('Cc1cc(N)nc(CCc2cccc(N(C)CCN)c2)c1 [Compound 10c]', 'e/n selectivity', 172),
  ('Cc1cc(N)nc(CCc2cc(F)cc(N3CCNCC3)c2)c1 [Compound 23h]', 'e/n selectivity', 82.8),
  ('Cc1cc(N)nc(CCc2cc(F)cc(NCc3cccnc3)c2)c1 [Compound 23g]', 'e/n selectivity', 10.0),
  ('Cc1cc(N)nc(CCc2cc(F)cc(N(C)CCNC3CC3)c2)c1 [Compound 23c]', 'e/n selectivity', 124.3),
  ('Cc1cc(N)nc(CCc2cc(F)cc(NCc3cccc(Cl)c3)c2)c1 [Compound 23f]', 'e/n selectivity', 262.0),
  ('CCNCCN(C)c1cc(F)cc(CCc2cc(C)cc(N)n2)c1 [Compound 23b]', 'e/n selectivity', 558.4);

Task: # e/n selectivity lookup, item CCN(CCNC)c1cc(F)cc(CCc2cc(C)cc(N)n2)c1 [Compound 23d]
Result: 93.2

Task: Another compound to look at: Cc1cc(N)nc(CCc2cc(C#N)cc(N(C)CCNC3CC3)c2)c1 [Compound 21c]
Result: 274.0
